meta.source: paper PMC9019904

- TEST METHOD NOTES: Kinetic solubility in aqueous buffer pH 7.4 by total chemiluminescent nitrogen determination (Analiza)
- CONDITION PARAMETERS: aqueous buffer, pH 7.4, aqueous buffer, kinetic from dmso stock
Counter-ions that a name gives are not always drawn.
VALUE TYPE: solubility kinetic (µM)

Some solved entries appear below for comparison.
{"columns": ["COMPOUND", "VALUE TYPE", "MEASURED VALUE"],
 "data": [
  ["O=C(Cn1cc(S(=O)(=O)N2CCCC2)ccc1=O)c1ccc(-c2cccc(C(F)(F)F)c2)cc1 [UNC8367A, reference compound]", "solubility kinetic", 6.5],
  ["Cc1ccc(-n2nc(C(C)(C)C)cc2NC(=O)Nc2ccc(OCCN3CCOCC3)c3ccccc23)cc1", "solubility kinetic", 3.6],
  ["Cl.O=C(O)Cc1cccc(OCCCN(Cc2cccc(C(F)(F)F)c2Cl)CC(c2ccccc2)c2ccccc2)c1 [GW 3965 HCl]", "solubility kinetic", 4.1]
]}

1: c1ccc(CNc2nc(NCc3ccccc3)c3ccccc3n2)cc1
2: COc1ccc(CCCN2CCC(COC(c3ccccc3)c3ccccc3)CC2)cc1 [UK-78282 HCl]
3: Cc1cc(C)nc(NC(=S)N2CCN(Cc3ccc(C(F)(F)F)cc3)CC2)c1
4: O=c1[nH]c(=O)n([C@H]2C[C@H](O)[C@@H](CO)O2)cc1/C=C/Br
Inquiry: Form: Sort by [solubility kinetic] Order [ ascending ] # output: labels, in the requested order
Reply text: 1, 3, 4, 2
(1: 1.9 µM, 3: 34.3 µM, 4: 199 µM, 2: 796 µM)

1: Clc1ccc(N/N=C(\c2ccccc2)c2ccccn2)nc1
2: CNc1nc(C)nc(N[C@H]2CCC[C@@H](C(=O)NCc3ccc(C#N)cc3C(F)(F)F)C2)n1 [GSK2256294A]
Inquiry: Field: entry with larger solubility kinetic (options 1 / 2 ). # respond with the chosen item's label
Reply text: 2
(2: 148 µM, 1: 24.3 µM)

1: Nc1ncnc2c1nc(Sc1ccc(Cl)cc1)n2[C@@H]1O[C@@H]2COP(=O)([O-])O[C@H]2[C@H]1O.[Na+]
2: O=C(NNc1nc2cc(F)ccc2n2cccc12)c1cnccn1
Inquiry: Field: entry with larger solubility kinetic (options 1 / 2 ). # respond with the chosen item's label
Reply text: 1
(1: 135 µM, 2: 2.7 µM)

* * *

- Tested on: BV2 (mouse microglia) cell line
- TEST METHOD NOTES: pHrodo-myelin phagocytosis/cell viability high content imaging assay: viability (cell count, nuclear area, nuclear intensity)
- CONDITION PARAMETERS: BV2; compound 10 uM; 48 hours treatment
VALUE TYPE: 1. Cell count (% control)
Please respond with the number in % control and leave the unit unwritten.

Some solved entries appear below for comparison.
{"columns": ["MOLECULE", "1. Cell count (% control)"],
 "data": [
  ["O=C1C=C(NCCc2cc(Br)c(O)c(Br)c2)C(=O)c2ncccc21 [UNC10303225A]", 8.3],
  ["CCS(=O)(=O)N1CCN(c2ccc(Nc3ncc(C(N)=O)c(NC4CC4)n3)cc2)CC1 [UNC10245084A]", 6.9],
  ["COCC(=O)O[C@]1(CCN(C)CCCc2nc3ccccc3[nH]2)CCc2cc(F)ccc2[C@@H]1C(C)C.Cl.Cl [UNC10303193A]", 0.0],
  ["O=S(=O)(NC1CCNCC1)c1cc(S(=O)(=O)c2ccccc2)ccc1C(F)(F)F [UNC10302840A]", 104.4]
]}

Inquiry: # query: 1. Cell count (% control) of entry Cc1cc(O)cc2c1[C@]1(C)CCC3C(C)(C)CCC[C@]3(C)[C@H]1C2 (some centres unmarked) [UNC10302703A]
Reply text: 88.9
